# Test system: MDA-MB-468 breast
# protocol_notes: NCI tumour cell line growth inhibition, 48 h
metric: TGI (µM)
Form entry: value (µM) — number only.

Per the records, this molecule ( `Clc1ccc2c(N/N=C/c3c[nH]c4ccc(Br)cc34)ccnc2c1` ) has TGI equal to 2.57

Per the records, this molecule ( Cc1c(C)n(CC(O)CNC2CCCCC2C)c2ccccc12 (stereo unspecified) ) has TGI equal to 23

Per the records, this molecule ( `COc1ccc(Nc2[nH]n(C3=Nc4ccccc4Sc4ccccc43)c(=O)c2C#N)cc1` ) has TGI equal to 2.81

Per the records, this molecule ( COc1ccc(C(=O)OC2C(OC3C(O)COC(O[C@H]4C[C@H]5[C@@H]6CC=C7C[C@@H](O)CC[C@]7(C)[C@H]6CC[C@]5(C)[C@H]4[C@H](C)C(=O)CCC(C)C)C3OC(=O)C(C)C)OCC(O)C2O)cc1 (stereo partly specified) ) has TGI equal to 3.55

Per the records, this molecule ( `COc1cc(-c2nn(-c3ccc(NC(=O)Nc4ccc(Cl)c(C(F)(F)F)c4)cc3)cc2-c2ccncc2)ccc1Cl` ) has TGI equal to 3.23

--- query ---
Per the records, this molecule ( COc1cc(/C=C/C(=O)c2ccc(F)cc2)ccc1OCCCCOc1cc2c(cc1OC)C(=O)N1CCCC1C=N2 (stereo unspecified) ) has TGI equal to 3.59
